Recorded measurements of ratio of amounts bound (Z=Y/X), one per entry
TEST_TARGET: T1, CD3 epsilon homodimer protein (UniProt P07766 23-126)
T1 construct: also called CD3 (CD3 epsilon)
T1 sequence (P07766 23-126): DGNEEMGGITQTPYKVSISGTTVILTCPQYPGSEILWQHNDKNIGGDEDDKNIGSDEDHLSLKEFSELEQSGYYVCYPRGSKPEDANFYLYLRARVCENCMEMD
RUN_DESCRIPTION: SPR Biacore T200, CD3e homodimer on chip, vs unaltered GLS3000 antibody
Quick one: just the number, no unit, thanks!

[[record]]
binder = "GLS3000 S27aY (antibody, name in Kabat numbering, V domains shown, one-arm IgG as m2) VH: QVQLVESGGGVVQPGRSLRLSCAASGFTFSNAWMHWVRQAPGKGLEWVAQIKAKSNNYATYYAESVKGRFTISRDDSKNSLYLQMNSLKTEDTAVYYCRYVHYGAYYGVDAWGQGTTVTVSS VL: DIVMTQSPLSLPVTPGEPASISCRSSQYLVHSNRNTYLHWYQQKPGQAPRLLIYKVSNRFSGVPDRFSGSGSGTDFTLKISRVEAEDVGVYYCGQGTQVPYTFGQGTKLEIK"
readout_number = 1.1

[[record]]
binder = "GLS3000 N53V (antibody, name in Kabat numbering, V domains shown, one-arm IgG as m2) VH: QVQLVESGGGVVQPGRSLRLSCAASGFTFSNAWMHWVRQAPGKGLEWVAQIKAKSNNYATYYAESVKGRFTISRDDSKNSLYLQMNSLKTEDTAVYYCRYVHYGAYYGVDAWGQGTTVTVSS VL: DIVMTQSPLSLPVTPGEPASISCRSSQSLVHSNRNTYLHWYQQKPGQAPRLLIYKVSVRFSGVPDRFSGSGSGTDFTLKISRVEAEDVGVYYCGQGTQVPYTFGQGTKLEIK"
readout_number = 0.56


Consider the additional binder presented here.
Reported ratio of amounts bound (Z=Y/X) of GLS3000 R29S (antibody, name in Kabat numbering, V domains shown, one-arm IgG as m2) VH: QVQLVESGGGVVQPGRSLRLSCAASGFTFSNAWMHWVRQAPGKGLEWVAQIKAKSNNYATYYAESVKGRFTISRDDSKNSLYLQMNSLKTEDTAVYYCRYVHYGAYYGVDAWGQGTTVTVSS VL: DIVMTQSPLSLPVTPGEPASISCRSSQSLVHSNSNTYLHWYQQKPGQAPRLLIYKVSNRFSGVPDRFSGSGSGTDFTLKISRVEAEDVGVYYCGQGTQVPYTFGQGTKLEIK : 0.68
